Where these numbers come from: patent US20140120095A1

# measured on: T1, mouse DLL4 overexpressed on cells (mouse, UniProt Q9JI71 27-686)
# T1 construct: whole, on cells; also called CHO-mDLL4; CHO-mDII4
# test description: FMAT, labelled hNotch1-Fc on CHO-mDLL4, periplasmic extract
# Text: All calculations are based on the FL1_total signal which comprises the average of the fluorescence per well times the number of counts per well.
measured endpoint: % inh

# binder, measured
rows = [
    ("DLLBII83G01 (VHH) VHH: EVQLVESGGGLVQAGGSLRLSCAASGRTFSNYIMGWFRQAPGKEREFVAGISRYADYTGYADSVKGRFTISRDNVKNTVYLRMNSLKPDDTAVYYCAANEGYCSGYGCYEDSGQYDYWGQGTQVTVSS", "93%"),
    ("DLLBII102G04 (VHH) VHH: EVQLMESGGGLVQPGGSLRLSCAASGFTFSSYAMSWVRQAPGKGLEWVSRITSGGRTTYRDSVKGRFTISRDNSKNTLYLQMNSLKPEDTALYYCAKARGDIDVYTLSDSRGQGTQVTVSS", "82%"),
]
